In this section we review reported IC50 values for a set of compounds.
biological target: recombinant human Bcl-2 D103Y protein (Homo sapiens (Human), UniProt P10415, D103Y); test: Bcl-2-D103Y Biochemical Assay (TR-FRET); settings: TR-FRET, FITC labeled Bak peptide
Sequence (P10415 whole entry D103Y): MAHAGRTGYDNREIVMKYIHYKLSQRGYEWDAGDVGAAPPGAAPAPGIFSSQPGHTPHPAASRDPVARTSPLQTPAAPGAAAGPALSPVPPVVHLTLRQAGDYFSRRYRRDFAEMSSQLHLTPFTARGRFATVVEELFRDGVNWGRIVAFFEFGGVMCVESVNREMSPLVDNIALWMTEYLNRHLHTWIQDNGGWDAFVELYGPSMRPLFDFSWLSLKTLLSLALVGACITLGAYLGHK

- compound: "CC(C)c1ccccc1[C@@H]1CN(Cc2ccc(F)cc2)CCN1C1CC2(CCN(c3ccc(C(=O)NS(=O)(=O)c4ccc(NC[C@H]5CC[C@](C)(O)CC5)c([N+](=O)[O-])c4)c(Oc4cnc5[nH]ccc5c4)c3)CC2)C1 (single isomer, unassigned) [Example 28a]"
  IC50 / nM: 0.2
- compound: "CC(C)c1ccccc1C1CN(C2CCOCC2)CCN1C1CC2(CCN(c3ccc(C(=O)NS(=O)(=O)c4ccc(NC[C@H]5CC[C@](C)(O)CC5)c([N+](=O)[O-])c4)c(Oc4cnc5[nH]ccc5c4)c3)CC2)C1 (stereo partly shown) [Example 10]"
  IC50 / nM: 0.12
- compound: "COc1cc(CN2CCN(C3CC4(C3)CN(c3ccc(C(=O)NS(=O)(=O)c5ccc(NC[C@H]6CC[C@](C)(O)CC6)c([N+](=O)[O-])c5)c(Oc5cnc6[nH]ccc6c5)c3)C4)[C@H](c3ccccc3C(C)C)C2)cc2c1OCC2(C)C [Example 296]"
  IC50 / nM: 0.14
- compound: "[2H]C([2H])([2H])Oc1cc(CN2CCN(C3CC4(C3)CN(c3ccc(C(=O)NS(=O)(=O)c5ccc(NC[C@H]6CC[C@](C)(O)CC6)c([N+](=O)[O-])c5)c(Oc5cnc6[nH]ccc6c5)c3)C4)[C@H](c3ccccc3C(C)C)C2)cc2c1OCC2(C)C [Example 324]"
  IC50 / nM: 0.14
